Biological target: T1, sLTβR (UniProt P36941 31-227, limits assumed)
T1 construct: Used in solution in ITC and as the analyte in SPR; also called soluble lymphotoxin beta receptor; antigen
T1 sequence (P36941 31-227 limits assumed): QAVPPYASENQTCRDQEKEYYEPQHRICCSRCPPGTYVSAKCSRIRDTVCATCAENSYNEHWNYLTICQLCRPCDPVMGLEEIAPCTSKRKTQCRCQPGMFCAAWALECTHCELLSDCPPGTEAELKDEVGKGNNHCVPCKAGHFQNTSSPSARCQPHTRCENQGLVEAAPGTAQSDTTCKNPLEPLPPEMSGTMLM
Assay: SPR (Biacore 3000)
Quick reference: Kd of the listed items.
ENDPOINT NAME: Kd (nM)

>  <BINDER>
BHA10 scFv VH-V55G, (G4S)4 linker (scFv, also called 079 VH-V55G; pIEH070) scFv: QVQLVQSGAEVKKPGSSVKVSCKASGYTFTTYYLHWVRQAPGQGLEWMGWIYPGNGHAQYNEKFKGRVTITADKSTSTAYMELSSLRSEDTAVYYCARSWEGFPYWGQGTTVTVSSGGGGSGGGGSGGGGSGGGGSDIQMTQSPSSLSASVGDRVTITCKASQNVGINVAWYQQKPGKAPKSLISSASYRYSGVPSRFSGSGSGTDFTLTISSLQPEDFATYFCQQYDTYPFTFGQGTKVEIKDDDDKSFLEQKLISEEDLNSAVDHHHHHH

>  <ENDPOINT NAME>
Kd

>  <U>
nM

>  <ENDPOINT VALUE>
2.2

$$$$
>  <BINDER>
BHA10 scFv VH-S16Q, VL-S46L, (G4S)4 linker, no disulfide (scFv, name in Kabat numbering, Positions are Kabat numbers of the VH and VL domains; also called 078 VL-S46L + VH-S16Q; pIEH078) scFv: QVQLVQSGAEVKKPGQSVKVSCKASGYTFTTYYLHWVRQAPGQGLEWMGWIYPGNVHAQYNEKFKGRVTITADKSTSTAYMELSSLRSEDTAVYYCARSWEGFPYWGQGTTVTVSSGGGGSGGGGSGGGGSGGGGSDIQMTQSPSSLSASVGDRVTITCKASQNVGINVAWYQQKPGKAPKLLISSASYRYSGVPSRFSGSGSGTDFTLTISSLQPEDFATYFCQQYDTYPFTFGQGTKVEIK

>  <ENDPOINT NAME>
Kd

>  <U>
nM

>  <ENDPOINT VALUE>
4.2

$$$$
>  <BINDER>
BHA10 scFv VH-P101D, (G4S)4 linker (scFv, name in Kabat numbering, Built on the (G4S)4 scFv; The position is a Kabat number of VH; also called 077 VH-P101D; pIEH058) scFv: QVQLVQSGAEVKKPGSSVKVSCKASGYTFTTYYLHWVRQAPGQGLEWMGWIYPGNVHAQYNEKFKGRVTITADKSTSTAYMELSSLRSEDTAVYYCARSWEGFDYWGQGTTVTVSSGGGGSGGGGSGGGGSGGGGSDIQMTQSPSSLSASVGDRVTITCKASQNVGINVAWYQQKPGKAPKSLISSASYRYSGVPSRFSGSGSGTDFTLTISSLQPEDFATYFCQQYDTYPFTFGQGTKVEIK

>  <ENDPOINT NAME>
Kd

>  <U>
nM

>  <ENDPOINT VALUE>
5.2

$$$$
